Below, each of the compounds is paired with its reported inhibition value.
molecular target: 1-phosphatidylinositol 4,5-bisphosphate phosphodiesterase gamma-1 (Homo sapiens); test: PLC-gamma1 enzyme inhibitors, primary screen, biochemical, fluorescence, purified enzyme (AID 720700); details: purified PLC-gamma1, fluorogenic substrate, at 12.2 µM, active compounds read high
Out of some 370,000 compounds screened, about 3,100 (0.84%) were called active. The full list was thinned out, with actives kept by preference.
Numeric only. Scale: %

Prompt: Tell me the measured inhibition of CC(C)(C)c1ccc(C(=O)Nc2cc(Cl)c(Br)cc2C(=O)O)cc1 , please.
Completion: 11

###

target: 1-phosphatidylinositol 4,5-bisphosphate phosphodiesterase gamma-1 (Homo sapiens) (UniProt P19174); test: PLC-gamma1 enzyme inhibitors, primary screen, biochemical, fluorescence, purified enzyme (AID 720700); conditions: purified PLC-gamma1, fluorogenic substrate, at 12.2 µM
Sequence (P19174 whole entry, looked up): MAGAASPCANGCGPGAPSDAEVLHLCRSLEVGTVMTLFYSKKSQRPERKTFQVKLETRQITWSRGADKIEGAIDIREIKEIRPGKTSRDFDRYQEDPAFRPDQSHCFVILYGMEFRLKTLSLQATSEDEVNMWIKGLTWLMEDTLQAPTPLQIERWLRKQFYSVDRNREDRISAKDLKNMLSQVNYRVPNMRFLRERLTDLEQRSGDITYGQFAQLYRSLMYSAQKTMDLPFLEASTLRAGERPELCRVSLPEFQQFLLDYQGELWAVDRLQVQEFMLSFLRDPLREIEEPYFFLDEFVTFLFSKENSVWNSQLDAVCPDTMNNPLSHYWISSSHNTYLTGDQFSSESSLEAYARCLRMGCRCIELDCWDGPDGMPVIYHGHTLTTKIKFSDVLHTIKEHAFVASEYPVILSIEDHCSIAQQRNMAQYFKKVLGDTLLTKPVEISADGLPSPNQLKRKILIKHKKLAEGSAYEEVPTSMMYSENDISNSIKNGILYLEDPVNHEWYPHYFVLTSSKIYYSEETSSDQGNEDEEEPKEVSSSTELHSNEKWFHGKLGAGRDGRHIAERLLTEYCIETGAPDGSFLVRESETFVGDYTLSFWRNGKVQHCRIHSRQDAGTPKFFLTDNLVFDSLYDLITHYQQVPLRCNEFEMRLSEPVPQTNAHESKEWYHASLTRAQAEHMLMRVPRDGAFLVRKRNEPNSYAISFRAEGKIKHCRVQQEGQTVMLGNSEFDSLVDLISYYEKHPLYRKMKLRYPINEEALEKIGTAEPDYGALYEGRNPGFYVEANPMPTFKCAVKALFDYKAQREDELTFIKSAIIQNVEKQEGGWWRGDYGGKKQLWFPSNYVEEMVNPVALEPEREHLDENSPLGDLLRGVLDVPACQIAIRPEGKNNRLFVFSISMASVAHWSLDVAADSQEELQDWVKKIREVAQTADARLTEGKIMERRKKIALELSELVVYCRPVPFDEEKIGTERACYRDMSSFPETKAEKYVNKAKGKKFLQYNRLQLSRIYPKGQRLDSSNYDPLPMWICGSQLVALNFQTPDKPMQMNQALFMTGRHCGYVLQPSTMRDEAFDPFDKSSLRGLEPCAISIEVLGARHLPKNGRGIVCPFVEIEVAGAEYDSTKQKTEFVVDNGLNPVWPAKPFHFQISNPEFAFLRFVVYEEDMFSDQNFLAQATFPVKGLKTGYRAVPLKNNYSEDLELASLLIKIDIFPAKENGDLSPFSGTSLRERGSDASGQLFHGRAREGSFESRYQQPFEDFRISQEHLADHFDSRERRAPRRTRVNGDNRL
The whole screen tested about 370,000 compounds, of which about 3,100 (0.84%) were called active. Rule as the data show it: active = inhibition above about 9.5%; inactive = the rest. Only a selection was taken, and actives are over-represented in it overall.
The categories you may choose from are active, inactive

These recorded examples may help you get a feel for the data.
# Chemical String, Cat
rows = [
    ("CC(=O)c1cccc(OCC(=O)OCC(=O)Nc2cc(S(=O)(=O)N3CCCCC3)ccc2C)c1", "inactive"),
    ("O=C(/C=C/c1c(F)cccc1Cl)Nc1nn[nH]n1", "active"),
]

Field: next compound
Prompt: GET /call?item= CCOC(=O)CNC(=O)/C=C/c1c(Cl)cccc1Cl returns the recorded outcome of this test.
Completion: inactive
